The measurements presented in this section are drawn from the supplement of paper PMC11061612.

Give measured combination Emax for each item. Keep answers brief.
# Test system: NCI-H650 (Lung Adenocarcinoma)
# Protocol: combination Emax (second highest fraction inhibited in the dose matrix, 72 h); higher = more inhibition; extreme values may be limits of the assay
Numbers only.

{"Compound": "C[C@@H](c1ccc2nccn2c1)n1nnc2ncc(-c3cnn(C)c3)nc21 [Savolitinib] + CC1(C)CCC(CN2CCN(c3ccc(C(=O)NS(=O)(=O)c4ccc(NCC5CCOCC5)c([N+](=O)[O-])c4)c(Oc4cnc5[nH]ccc5c4)c3)CC2)=C(c2ccc(Cl)cc2)C1 [Venetoclax] (first compound max 1 µM, 7x7, partner max 1 µM)", "Study System": "NCI-H650 (Lung Adenocarcinoma)", "combination Emax": 0.0996}
{"Compound": "COc1cccc(OCCCN)c1-c1cc(Nc2cnc(C#N)cn2)n[nH]1 [Prexasertib] + O=C(c1cc(Cc2n[nH]c(=O)c3ccccc23)ccc1F)N1CCN(C(=O)C2CC2)CC1 [Olaparib] (first compound max 1 µM, 7x7, partner max 10 µM)", "Study System": "NCI-H650 (Lung Adenocarcinoma)", "combination Emax": 0.708}

Next compound, combination Emax to be filled in.
combination Emax measured on COc1nnc2ccc(N3CCC(c4ccc(OCCN5CCN(C)C(=O)[C@H]5C)cc4)CC3)nn12 [AZD5153] + CN(CC[C@H](CSC1=CC=CC=C1)NC2=C(C=C(C=C2)S(=O)(=O)NC(=O)C3=CC=C(C=C3)N4CCC(CC4)[C@H](C5=CC=CC=C5C6=CC=C(C=C6)Cl)O)S(=O)(=O)C(F)(F)F)CCO [AZD4320] (first compound max 1 µM, 7x7, partner max 1 µM) = 0.512
